- Test system: HT29 colon
- procedureText: NCI tumour cell line growth inhibition, 48 h
measuredQuantity: GI50

O=c1oc2ccc(-c3ccc(F)cc3F)cc2c(=O)n1-c1ccc(Cl)c(C(F)(F)F)c1 ... 3.07 µM
O=S(=O)(Nc1ccc(F)c(Cl)c1)c1ccc(-c2cnc(C3CC3)o2)cc1 ... 0.259 µM
COc1cc2c(=O)n(CCN(C)C)c3c4cc5c(cc4ccc3c2cc1OC)OCO5 ... 0.178 µM

Item under review: COc1cc(/C=C/c2cc(/C=C/c3ccc(O)c(OC)c3)n(C(=O)Nc3ccc(Cl)cc3)n2)ccc1O . Reported GI50?
2.58 µM

Item under review: Cc1cn(-c2ccc(S(C)(=O)=O)cc2)c(-c2ccc(Cl)cc2)n1 . Reported GI50?
> 100 µM

Item under review: Nc1ccccc1C#C/C=C\C#Cc1c(F)c(F)c(F)c(F)c1F . Reported GI50?
19.7 µM

Item under review: COc1cc(NCCN=C(N)NC(N)=NC(C)C)c2ncccc2c1 . Reported GI50?
7.91 µM

Item under review: O=C(N/N=C/c1cc(Cl)cc(Cl)c1[O-])c1ccccc1.O=C(N/N=C/c1cc(Cl)cc(Cl)c1[O-])c1ccccc1.[Co+2] . Reported GI50?
49.5 µM

Item under review: Cc1ccc(NCCN(C)C)c2c(=O)c3ccccc3sc12 . Reported GI50?
1.62 µM

Item under review: O=C(OC/C=C1C=C(OC(=O)c2ccccc2)/C(=N/N(C(=O)c2ccccc2)c2ccccc2)O\1)c1ccccc1 . Reported GI50?
19.8 µM

Item under review: COc1ccc(Cn2cc3c(c2-c2ccccc2)CCc2cnoc2-3)cc1N . Reported GI50?
1.78 µM

Item under review: COc1ccc(C2C=C(c3ccc(Cl)cc3)N=C3SC=C(C)N32)c(Br)c1 (stereo not drawn) . Reported GI50?
3.62 µM

Item under review: N#CN1CC[C@H](C(=O)Nc2cc3cc(C(N)=O)ccc3cn2)C1 . Reported GI50?
0.144 µM

Item under review: N#Cc1c(N)nc(NCc2ccccc2)c(C#N)c1-c1ccc(Cl)cc1Cl . Reported GI50?
> 100 µM

Item under review: O=C(Nc1cc(Oc2cc(F)c(NC(=O)C3(C(=O)Nc4ccc(F)cc4)CC3)cc2F)ccn1)C1CC1 . Reported GI50?
0.929 µM

Item under review: CCS(=O)(=O)c1ccc(OC)c(Nc2ncc(-c3ccccc3Cl)o2)c1 . Reported GI50?
8.01 µM

Item under review: CC1=C[C@H]2C[C@H](C)[C@H]3CC[C@H](C)[C@]4(C1)C(=O)C(O)=C(C)C(=O)[C@@]324 . Reported GI50?
27.8 µM

Item under review: COc1cccc(/C(C)=N/NC(=O)CSc2nc3ccccc3c(=O)n2CCc2ccc(S(N)(=O)=O)cc2)c1 . Reported GI50?
2.36 µM

* * *

- System: COLO 205 colon
- procedureText: NCI tumour cell line growth inhibition, 48 h
Rule: Criterion met for TGI not less than 10 µM, Criterion not met for anything less.

Some solved cases for reference:
Cc1cc(=O)[nH]c(CNC(=O)c2cccc(C(=O)NCc3cc(=O)[nH]c(C)n3)c2)n1 ... Criterion met
CNC(=O)OC(COC)CN1CCN(c2ccccc2C)CC1 (centres undefined) ... Criterion met
O=C1c2ccccc2C(=O)c2sc(Nc3ccccc3Cl)nc21 ... Criterion met
CCOC(=O)C(CNc1ccc(O)cc1)NC(=O)c1ccccc1 (centres undefined) ... Criterion met
Cc1c(N2C(=O)/C(=C/c3ccc(N(CCC#N)CCC#N)cc3)N=C2c2ccccc2)c(=O)n(-c2ccccc2)n1C ... Criterion met

// inclusive: TGI at least 10 µM? input: COc1ccc(C2C3CCCC(C3=O)C(c3ccc(OC)cc3)N2N=O)cc1 (centres undefined)
Criterion met

// inclusive: TGI at least 10 µM? input: Cc1cccc(C)c1Nc1nc(C)c(C(=O)CC(=O)C(=O)Nc2c(C(C)C)cccc2C(C)C)s1
Criterion met

// inclusive: TGI at least 10 µM? input: COc1ccc(C2C=C(c3ccc(Cl)cc3)N=C3SC=C(C)N32)c(Br)c1 (centres undefined)
Criterion met

// inclusive: TGI at least 10 µM? input: O=C(NCCNc1nccc(-c2c(-c3cccc(O)c3)nc3sccn23)n1)c1ccccc1
Criterion met

// inclusive: TGI at least 10 µM? input: c1ccc(P(=C2c3ccccc3-c3ccccc32)(c2ccccc2)c2ccccc2)cc1
Criterion met

// inclusive: TGI at least 10 µM? input: CN1C(=O)CC2CCC(=O)N2c2cccnc21 (centres undefined)
Criterion met

// inclusive: TGI at least 10 µM? input: O=S(=O)(O)Oc1cc2c(c(OS(=O)(=O)O)c1)C[C@H](OS(=O)(=O)O)[C@@H](c1ccc(OS(=O)(=O)O)c(OS(=O)(=O)O)c1)O2
Criterion met

// inclusive: TGI at least 10 µM? input: CC1CN=C(c2cccc(-c3nc(-c4cccc(C5=NCC(C)N5)c4)nc(N(C)C)n3)c2)N1 (centres undefined)
Criterion not met
